# measurement.description: in vivo
# Parameters: species or system Fisher rats
# measurement.conditions: Fisher, rat, iv, 10 mg/kg, Half-life (terminal, elimination)
metric: half-life (h)
Number only, in h; omit the unit.

For this compound ( COc1cccc2c1C(=O)c1c(O)c3c(c(O)c1C2=O)C[C@@](O)(C(C)=O)C[C@@H]3O[C@H]1C[C@H](N)[C@H](O)[C@H](C)O1 [free daunorubicin, daunorubicin] ), measured half-life is 3.4

###

# measurement.description: in vivo
# measurement.conditions: Fisher, rat, iv, 5 mg/kg
metric: Cmax (ng/mL)
Number only, in ng/mL; omit the unit.

For this compound ( CO[C@H]1C(=O)[C@]2(C)[C@@H](OC)C[C@H]3OC[C@@]3(OC(C)=O)[C@H]2[C@H](OC(=O)c2ccccc2)[C@]2(O)C[C@H](OC(=O)[C@H](O)[C@@H](NC(=O)OC(C)(C)C)c3ccccc3)C(C)=C1C2(C)C [free cabizataxel, cabazitaxel] ), measured Cmax is 1200

###

# measurement.description: in vivo
# Parameters: species or system Fisher rats
# measurement.conditions: Fisher, rat, iv, 10 mg/kg
metric: AUC (µg·h/mL)
Number only, in µg·h/mL; omit the unit.

For this molecule ( COc1cccc2c1C(=O)c1c(O)c3c(c(O)c1C2=O)C[C@@](O)(C(C)=O)C[C@@H]3O[C@H]1C[C@H](N)[C@H](O)[C@H](C)O1 [free daunorubicin, daunorubicin] ), measured AUC is 1.3

Hey, just so you know, these numbers are from patent US20130288991A1.
